Form field: self-cleavage kobs at 40 uM GlcN6P (one value per entry).
B1: glmS ribozyme (parent)
chain: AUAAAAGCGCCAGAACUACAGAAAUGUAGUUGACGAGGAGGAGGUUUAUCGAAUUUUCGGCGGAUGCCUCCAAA

- Variants of: B1
- assayProcedure: self-cleavage kobs at 40 uM GlcN6P; higher = faster cleavage; RNA array
- conditionContext: with glucosamine-6-phosphate
Fewer inactive variants are shown than the library holds.
quantityKind: self-cleavage kobs at 40 uM GlcN6P

1. A53C C58U: < 1e-05 s⁻¹
2. C34A U45A: < 1e-05 s⁻¹
3. G29C A36U A39G G63U: < 1e-05 s⁻¹
4. U30A U49A G62U: < 1e-05 s⁻¹
5. A12U A39U C71U: 0.000517 s⁻¹
6. C8A U69G: 8.97e-05 s⁻¹
7. G59A A64U: < 1e-05 s⁻¹
8. C11U C16A G44C: < 1e-05 s⁻¹
9. A12U U54A: 0.00273 s⁻¹
10. C68G: 1.18e-05 s⁻¹
11. A6C G7U G35A C58U G60A: < 1e-05 s⁻¹
12. G9C U56G: < 1e-05 s⁻¹
13. G26U U65G: 6.93e-05 s⁻¹
14. G41A G59U: < 1e-05 s⁻¹
15. C11U A12U C34A G66C: < 1e-05 s⁻¹
16. G9U A14C A52C: < 1e-05 s⁻¹
17. A12G C58U: < 1e-05 s⁻¹
18. A6C A33G: < 1e-05 s⁻¹
19. A42G U45G: 0.000836 s⁻¹
20. C8G A48U C71G: < 1e-05 s⁻¹
21. A33U G35U: < 1e-05 s⁻¹
22. U30G G41U C68A: < 1e-05 s⁻¹
23. C11U U30A A48G G59C A64G: < 1e-05 s⁻¹
24. A6U C58G: < 1e-05 s⁻¹
25. A14C G43C: < 1e-05 s⁻¹
26. A1C U56G: 0.000433 s⁻¹
27. G7A A12G: < 1e-05 s⁻¹
28. C11A A39G U45A A52U: < 1e-05 s⁻¹
29. G66A C67G: 0.000102 s⁻¹
30. G29A A53G: 0.000136 s⁻¹
31. A14G U45G: 0.000286 s⁻¹
32. C10U G13U: < 1e-05 s⁻¹
33. G9U C16U A52G C67G: 0.000158 s⁻¹
34. C16U A39C C68A: < 1e-05 s⁻¹
35. G37C G44U U46G C71G: < 1e-05 s⁻¹
36. C10G U49C: < 1e-05 s⁻¹
37. U46C A48G C50A C71G: < 1e-05 s⁻¹
38. A53U U54G C71A: 9.49e-05 s⁻¹
39. A39C A48G U55C: < 1e-05 s⁻¹
40. C11A: < 1e-05 s⁻¹
41. A15U U55G: 0.000109 s⁻¹
42. U30C A42U G44A A48G G59A: < 1e-05 s⁻¹
43. U49A U57G: < 1e-05 s⁻¹
44. A14U U56A: 0.000146 s⁻¹
45. C10U G40U U49A: < 1e-05 s⁻¹
46. G37C A52G: < 1e-05 s⁻¹
47. U45A U69A: 5.69e-05 s⁻¹
48. C61A U69G: < 1e-05 s⁻¹
49. A39U A42U: 0.000312 s⁻¹
50. U47G G51C U57C C68U: < 1e-05 s⁻¹
51. A15U G35A: < 1e-05 s⁻¹
52. C8A G62C: < 1e-05 s⁻¹
53. G38C A48U U65A: < 1e-05 s⁻¹
54. U46A A48C: < 1e-05 s⁻¹
55. G9U A36C: < 1e-05 s⁻¹
56. A14U G37U G59U C61A: < 1e-05 s⁻¹
57. C8A G13A: < 1e-05 s⁻¹
